System: T-47D human mammary cancer cells
experiment: MTT test, proliferation of T-47D
Assay type: cell-based
stated.conditions: Homo sapiens, T47D; T-47D, 10^-6 M, 72 h, control = 100%; read-out: level of proliferation
Flag rule - activity at 1 µM less than 90% flags TRUE; the remaining entries get FALSE.

Below 90% on activity at 1 µM? Entry `C/C(=C\c1cc2c(cc1C)C(C)(C)CCC2(C)C)c1ccc(C(=O)O)cc1`
FALSE

Below 90% on activity at 1 µM? Entry `C/C(=C/c1ccc2c(c1)C(C)(C)CCS2(=O)=O)c1ccc(-c2nnn[nH]2)cc1`
FALSE

Below 90% on activity at 1 µM? Entry `C/C(=C\c1ccc2c(c1)C(C)(C)CCS2)c1ccc(C(=O)O)cc1`
TRUE

Below 90% on activity at 1 µM? Entry `Cc1cc2c(cc1C(=O)c1ccc(C(=O)Nc3ccc(O)cc3)cc1)C(C)(C)CCC2(C)C`
FALSE

Below 90% on activity at 1 µM? Entry `C/C(=C/c1ccc2c(c1)C(C)(C)CCC2(C)C)c1ccc(C(=O)O)cn1`
TRUE

Below 90% on activity at 1 µM? Entry CC1=C(/C=C/C(C)=C/C=C/C(C)=C/C(=O)Nc2ccc(O)cc2)C(C)(C)CCC1 [CB05764, reference compound]
TRUE

Below 90% on activity at 1 µM? Entry `C/C(=C/c1cc2c(cc1C)C(C)(C)CCC2(C)C)c1ccc(-c2nnn[nH]2)cc1`
FALSE

Below 90% on activity at 1 µM? Entry `C/C(=C\c1ccc2c(c1)C(C)(C)CCS2(=O)=O)c1ccc(C(=O)O)cc1`
FALSE

Below 90% on activity at 1 µM? Entry `C/C(=C\c1cc2c(cc1C)C(C)(C)CCC2(C)C)c1ccc(-c2nnn[nH]2)cc1`
TRUE

Below 90% on activity at 1 µM? Entry `C/C(=C/c1ccc2c(c1)C(C)(C)CCS2)c1ccc(C(=O)O)cc1`
TRUE

Below 90% on activity at 1 µM? Entry `Cc1cc2c(cc1/C=C(\c1ccc(C(=O)O)cc1)C(F)(F)F)C(C)(C)CCC2(C)C`
TRUE

Below 90% on activity at 1 µM? Entry `C=C(c1ccc(C(=O)Nc2ccc(O)cc2)cc1)c1cc2c(cc1C)C(C)(C)CCC2(C)C`
TRUE

Below 90% on activity at 1 µM? Entry `CCCCCCCOc1cc2c(cc1/C(C)=C/c1ccc(C(=O)O)cc1)C(C)(C)CCS2(=O)=O`
FALSE

Below 90% on activity at 1 µM? Entry CC1=C(/C=C/C(C)=C/C=C/C(C)=C/C(=O)O)C(C)(C)CCC1 [CB16178, all-trans retinoic acid, reference compound]
TRUE

Below 90% on activity at 1 µM? Entry `COc1cc2c(cc1/C(C)=C/c1ccc(C(=O)O)cc1)C(C)(C)CCS2(=O)=O`
FALSE

====

Tested on: human mammary tumoral lineage T-47D
experiment: Clonogenic test (soft agar), growth of cellular colonies
Type: cell-based
stated.conditions: Homo sapiens, T47D, 504 h; T-47D, 10^-8 M, 21 days, control = 100%; read-out: mean number of cellular colonies in relation to control
assay.endpoint: activity at 0.01 µM (%)
Give a bare numeral; the unit % is implied.

Recall the recorded activity at 0.01 µM for C/C(=C/c1ccc2c(c1)C(C)(C)CCC2(C)C)c1ccc(C(=O)O)cn1 [CB38416] with human mammary tumoral lineage T-47D and state it.
15.3

Recall the recorded activity at 0.01 µM for C/C(=C\c1ccc2c(c1)C(C)(C)CCC2(C)C)c1ccc(C(=O)O)s1 [CB38973] with human mammary tumoral lineage T-47D and state it.
38.6

Recall the recorded activity at 0.01 µM for CC/C(=C(\c1ccccc1)c1ccc(OCCN(C)C)cc1)c1ccccc1 [CB58707, tamoxifen, reference compound] with human mammary tumoral lineage T-47D and state it.
46.9
